// provenance: patent US8853230B2

target: JAK2 (Homo sapiens); construct: 5 μl of catalytic domain recombinant Kinase enzyme+Tyr peptide substrate (Invitrogen, Calif.); experiment: Z'-LYTE kinase assay, JAK2 tyrosine phosphorylation activity
Sequence (O60674 849-1124 limits assumed): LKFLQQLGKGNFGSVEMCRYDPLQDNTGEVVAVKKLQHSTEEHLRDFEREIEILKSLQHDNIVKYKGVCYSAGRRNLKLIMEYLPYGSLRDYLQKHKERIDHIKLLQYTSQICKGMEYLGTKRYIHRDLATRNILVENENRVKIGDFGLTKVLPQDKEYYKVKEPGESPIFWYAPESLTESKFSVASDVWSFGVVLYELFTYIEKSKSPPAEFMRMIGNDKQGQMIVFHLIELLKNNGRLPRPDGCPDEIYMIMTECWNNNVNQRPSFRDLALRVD
test-readout: IC50

NC(=O)c1cnc(Nc2ccc(F)c(NC(=O)N3CCCC3)c2)cc1NCc1cccc(F)c1 : 100 to 1000 nM
CC(=O)Nc1cccc(Nc2ncc(C(N)=O)c(NC3CCCCC3)n2)c1 : 10 to 100 nM
CC(=O)Nc1cccc(Nc2ncc(C(N)=O)c(NCC#N)n2)c1 : 10 to 100 nM
CC(=O)Nc1cccc(Nc2ncc(C(N)=O)c(N[C@@H](c3ccccc3)C3CC3)n2)c1 : 100 to 1000 nM

The value of IC50 measured for the compound `NC(=O)c1cnc(Nc2cccc(NC(=O)N3CC[C@H](O)C3)c2)nc1NCc1ccccc1` turned out to be 10 to 100 nM
